Biological target: hSCN3A (Homo sapiens, UniProt Q9NY46)
Construct: expressed in transfected cells
Sequence (Q9NY46 whole entry): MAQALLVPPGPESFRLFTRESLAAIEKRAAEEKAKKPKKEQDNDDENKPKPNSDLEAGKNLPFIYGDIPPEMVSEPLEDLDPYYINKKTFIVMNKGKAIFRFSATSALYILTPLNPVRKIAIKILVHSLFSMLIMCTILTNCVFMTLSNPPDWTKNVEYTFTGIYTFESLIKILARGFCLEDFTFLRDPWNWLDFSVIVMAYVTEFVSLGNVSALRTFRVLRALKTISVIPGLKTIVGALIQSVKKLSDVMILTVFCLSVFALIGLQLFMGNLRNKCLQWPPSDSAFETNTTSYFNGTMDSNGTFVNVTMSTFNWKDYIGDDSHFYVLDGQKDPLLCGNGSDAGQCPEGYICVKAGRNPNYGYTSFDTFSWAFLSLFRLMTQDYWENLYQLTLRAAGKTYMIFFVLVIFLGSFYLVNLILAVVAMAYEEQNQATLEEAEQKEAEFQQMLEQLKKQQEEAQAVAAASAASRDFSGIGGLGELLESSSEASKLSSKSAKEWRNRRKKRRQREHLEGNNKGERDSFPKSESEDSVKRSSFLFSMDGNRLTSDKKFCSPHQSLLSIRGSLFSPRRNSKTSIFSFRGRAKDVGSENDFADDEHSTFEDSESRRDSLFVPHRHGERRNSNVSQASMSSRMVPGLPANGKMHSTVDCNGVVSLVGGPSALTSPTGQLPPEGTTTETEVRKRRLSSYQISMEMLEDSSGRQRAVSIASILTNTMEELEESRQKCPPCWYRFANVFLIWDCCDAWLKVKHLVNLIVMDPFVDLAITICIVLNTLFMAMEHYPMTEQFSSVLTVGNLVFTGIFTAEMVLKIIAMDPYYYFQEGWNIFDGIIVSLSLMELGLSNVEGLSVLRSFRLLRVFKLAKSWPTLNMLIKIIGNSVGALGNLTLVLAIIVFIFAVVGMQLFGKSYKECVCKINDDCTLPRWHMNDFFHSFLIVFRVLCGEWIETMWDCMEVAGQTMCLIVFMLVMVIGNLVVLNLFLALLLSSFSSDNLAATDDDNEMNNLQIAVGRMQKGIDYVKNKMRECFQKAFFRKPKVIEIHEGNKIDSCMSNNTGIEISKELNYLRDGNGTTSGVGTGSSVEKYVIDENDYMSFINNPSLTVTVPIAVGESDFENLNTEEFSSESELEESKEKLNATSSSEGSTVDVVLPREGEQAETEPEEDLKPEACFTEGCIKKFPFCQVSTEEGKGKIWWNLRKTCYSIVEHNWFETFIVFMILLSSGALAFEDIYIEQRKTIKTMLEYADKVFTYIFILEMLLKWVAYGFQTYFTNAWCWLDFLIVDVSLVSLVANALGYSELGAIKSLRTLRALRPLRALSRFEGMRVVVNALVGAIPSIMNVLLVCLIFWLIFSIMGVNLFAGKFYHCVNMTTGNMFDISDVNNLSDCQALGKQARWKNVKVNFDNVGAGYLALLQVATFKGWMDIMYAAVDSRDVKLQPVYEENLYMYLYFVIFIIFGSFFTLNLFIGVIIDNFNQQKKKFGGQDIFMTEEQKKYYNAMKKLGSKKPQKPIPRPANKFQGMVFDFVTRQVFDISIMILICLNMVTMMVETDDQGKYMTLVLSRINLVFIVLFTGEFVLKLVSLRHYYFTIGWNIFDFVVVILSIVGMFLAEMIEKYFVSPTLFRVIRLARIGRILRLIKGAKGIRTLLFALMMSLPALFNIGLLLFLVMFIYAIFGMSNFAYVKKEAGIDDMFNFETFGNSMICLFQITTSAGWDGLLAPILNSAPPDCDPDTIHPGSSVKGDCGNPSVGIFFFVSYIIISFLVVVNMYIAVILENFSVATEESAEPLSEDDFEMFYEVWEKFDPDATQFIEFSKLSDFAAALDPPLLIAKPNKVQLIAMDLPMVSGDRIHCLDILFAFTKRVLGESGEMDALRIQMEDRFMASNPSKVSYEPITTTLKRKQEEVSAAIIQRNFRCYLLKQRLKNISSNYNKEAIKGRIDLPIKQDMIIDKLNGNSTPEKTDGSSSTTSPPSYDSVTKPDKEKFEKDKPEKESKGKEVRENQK
Assay: Whole-cell patch-clamp electrophysiology (conventional or PatchXpress), HEK cells expressing hSCN3A, estimated IC-50
Format: cell-based
Details: estimated IC-50, HEK cells expressing hSCN3A; class symbols or bounds; read-out: SCN3A EIC-50
We begin with a simple list: items and their reported IC50.

The cases that follow already have their IC50 on record.
* O=S(=O)(Nc1nccs1)c1ccc(Nc2nc(CC(c3ccccc3)c3ccccc3)cs2)cc1 | < 2000 nM
* O=S(=O)(Nc1nccs1)c1ccc(Nc2ccn(Cc3ccc(Cl)cc3)n2)cc1Cl | < 2000 nM
* COc1ccc(CNCc2csc(Nc3ccc(S(=O)(=O)Nc4nccs4)cc3)n2)c(OC)c1 | 2000 to 10000 nM
* Cc1cnc(NS(=O)(=O)c2ccc(Nc3nc(Cc4ccc(Cl)cc4)cs3)cc2F)s1 | 2000 to 10000 nM
* O=S(=O)(Nc1nccs1)c1ccc(Nc2nc(COc3ccc(Cl)cc3)cs2)cc1 | < 2000 nM
* O=S(=O)(Nc1nccs1)c1ccc(Nc2cnn(Cc3ccc(C(F)(F)F)cc3)c2)cc1F | < 2000 nM
* O=S(=O)(Nc1nccs1)c1cc(F)c(Nc2ccn(Cc3ccc(Cl)cc3)n2)cc1F | < 2000 nM
* O=S(=O)(Nc1nccs1)c1ccc(Nc2nc(-c3ccc(C(F)(F)F)cc3)cs2)cc1 | < 2000 nM
* CC(C)(C)c1cc(Nc2ccc(S(=O)(=O)Nc3nccs3)c(F)c2)n(-c2ccccc2)n1 | < 2000 nM
* O=S(=O)(Nc1nccs1)c1ccc(Nc2ccn(Cc3ccc(Cl)cc3F)n2)c(F)c1 | < 2000 nM

Please give the measured IC50 for this compound: `CN(CCc1ccccc1)Cc1csc(Nc2ccc(S(=O)(=O)Nc3nccs3)cc2)n1`
< 2000 nM

Try this compound next: `O=S(=O)(Nc1ccccn1)c1ccc(Nc2nc(Cc3ccc(Cl)cc3)cs2)cc1`
> 10000 nM

Try this compound next: `Cn1nc(-c2ccc(Cl)cc2)cc1Nc1ccc(S(=O)(=O)Nc2nccs2)c(F)c1`
< 2000 nM

Try this compound next: `Cc1ccc(-n2nc(C)cc2Nc2ccc(S(=O)(=O)Nc3nccs3)c(F)c2)cc1`
< 2000 nM

Try this compound next: `O=S(=O)(Nc1nccs1)c1ccc(Nc2ncccn2)cc1`
> 1000 nM

Try this compound next: `O=S(=O)(Nc1nccs1)c1ccc(Nc2nc(CNC3CCCCCC3)cs2)cc1`
2000 to 10000 nM

Try this compound next: `O=S(=O)(Nc1nccs1)c1ccc(Nc2ccn(Cc3ccc(C(F)(F)F)cc3)n2)cc1F`
< 2000 nM

====

Molecular target: hSCN9A (Homo sapiens)
Construct: expressed in transfected cells
Experiment: Whole-cell patch-clamp electrophysiology (conventional or PatchXpress), HEK cells expressing hSCN9A, estimated IC-50
Type: cell-based
Conditions: estimated IC-50, HEK cells expressing hSCN9A; class symbols or bounds; read-out: SCN9A EIC-50
RECORDED_ENDPOINT: IC50

* COc1ccc(Cc2cc(Nc3ccc(S(=O)(=O)Nc4nccs4)cc3)n(C)n2)cc1 | > 1000 nM
* Cc1ccc(Cc2cc(Nc3ccc(S(=O)(=O)Nc4nccs4)c(F)c3)n(C)n2)cc1 | < 2000 nM
* O=S(=O)(Nc1nccs1)c1ccc(Nc2cc(Cc3ccc(Cl)cc3)n[nH]2)cc1F | < 2000 nM
* Cc1cc(Nc2ccc(S(=O)(=O)Nc3ncc(Cl)s3)c(F)c2)n(-c2ccccc2)n1 | < 2000 nM
* CC(C)(C)c1cc(Nc2ccc(S(=O)(=O)Nc3nccs3)c(F)c2)n(-c2ccccc2)n1 | < 2000 nM

Now turn to the next compound.
Please give the measured IC50 for this compound: `O=S(=O)(Nc1nccs1)c1ccc(Nc2nc(CNCC(c3ccccc3)c3ccccc3)cs2)cc1`
< 2000 nM

====

Biological target: hSCN3A (Homo sapiens)
Construct: expressed in transfected cells
Test: Whole-cell patch-clamp electrophysiology (conventional or PatchXpress), HEK cells expressing hSCN3A, estimated IC-50
Type: cell-based
Conditions: estimated IC-50, HEK cells expressing hSCN3A; class symbols or bounds; read-out: SCN3A EIC-50
pIC50: −log10 of the molar value.
RECORDED_ENDPOINT: pIC50

- CC(C)(C)c1csc(Nc2ccc(S(=O)(=O)Nc3nccs3)cn2)n1: 5.00 to 5.70
- O=S(=O)(Nc1nccs1)c1ccc(Nc2nc(COc3ccccc3)cs2)cc1: > 5.70
- O=S(=O)(Nc1nccs1)c1ccc(Nc2cncc(Cc3cc(F)cc(F)c3)n2)cc1: > 5.70
- O=S(=O)(Nc1nccs1)c1ccc(Nc2nc(-c3ccccc3)c(-c3ccccc3)s2)cc1: > 5.70

Please give the measured pIC50 for this compound: `Cc1cc(Nc2ccc(S(=O)(=O)Nc3ncc(C#N)s3)c(F)c2)n(-c2ccccc2)n1`
5.00 to 5.70

Try this compound next: `O=[N+]([O-])c1ccc(CNCc2csc(Nc3ccc(S(=O)(=O)Nc4nccs4)cc3)n2)cc1`
> 5.70

Try this compound next: CC(Oc1ccccc1)c1csc(Nc2ccc(S(=O)(=O)Nc3nccs3)cc2)n1 (centres unmarked)
> 5.70

Try this compound next: `O=S(=O)(Nc1nccs1)c1ccc(Nc2ccn(Cc3ccc(Cl)cc3)n2)cn1`
> 5.70

====

Target: hSCN9A (Homo sapiens)
Construct: expressed in transfected cells
Assay: Whole-cell patch-clamp electrophysiology (conventional or PatchXpress), HEK cells expressing hSCN9A, estimated IC-50
Format: cell-based
Details: estimated IC-50, HEK cells expressing hSCN9A; class symbols or bounds; read-out: SCN9A EIC-50
RECORDED_ENDPOINT: IC50

The cases that follow already have their IC50 on record.
* COc1ccc(C(=O)Cn2ncc3cc(S(=O)(=O)Nc4nccs4)ccc32)c(OC)c1 | > 1 µM
* Cc1cc(Nc2ccc(S(=O)(=O)Nc3ncns3)c(F)c2)n(-c2ccccc2)n1 | 2 to 10 µM
* O=S(=O)(Nc1nccs1)c1ccc(Nc2ncccn2)cc1 | > 3 µM
* O=S(=O)(Nc1nncs1)c1ccc(Nc2ccn(Cc3ccc(Cl)cc3)n2)cc1C(F)(F)F | < 2 µM
* Cn1nc(Cc2ccc(Cl)cc2)cc1Nc1ccc(S(=O)(=O)Nc2nccs2)c(F)c1 | < 2 µM

Please give the measured IC50 for this molecule: `Cc1csc(NS(=O)(=O)c2ccc(Nc3nc(Cc4ccc(Cl)cc4)cs3)cc2F)n1`
2 to 10 µM

Try this molecule next: `Cc1cc(Nc2cc(F)c(S(=O)(=O)Nc3nccs3)cc2F)n(-c2ccccc2)n1`
< 2 µM

Try this molecule next: `O=S(=O)(Nc1nc(C(F)(F)F)cs1)c1ccc(Nc2nc(Cc3ccc(Cl)cc3)cs2)cc1`
2 to 10 µM

====

Target: hSCN3A (Homo sapiens)
Construct: expressed in transfected cells
Assay: Whole-cell patch-clamp electrophysiology (conventional or PatchXpress), HEK cells expressing hSCN3A, estimated IC-50
Type: cell-based
Conditions: estimated IC-50, HEK cells expressing hSCN3A; class symbols or bounds; read-out: SCN3A EIC-50
pIC50: −log10 of the molar value.
We begin with a simple list: items and their reported pIC50.

The cases that follow already have their pIC50 on record.
• O=S(=O)(Nc1nccs1)c1ccc(Nc2ccn(Cc3ccc(Cl)cc3)n2)c(F)c1 = > 5.70
• CN(Cc1csc(Nc2ccc(S(=O)(=O)Nc3nccs3)cc2)n1)C(c1ccccc1)c1ccccc1 = > 5.70

Give hSCN3A (Homo sapiens) pIC50 for `Cn1c(Nc2ccc(S(=O)(=O)Nc3nccs3)cc2)nc2ccc(Cl)cc21`
> 5.70

Try this molecule next: `O=S(=O)(Nc1nccs1)c1ccc(Nc2ccn(Cc3ccc(C(F)(F)F)cc3)n2)c(F)c1`
> 5.70

Try this molecule next: `Cn1nc(C(C)(C)C)cc1Nc1ccc(S(=O)(=O)Nc2nccs2)c(F)c1`
> 5.70

====

Target: hSCN9A (Homo sapiens, UniProt Q15858)
Construct: expressed in transfected cells
Sequence (Q15858 whole entry): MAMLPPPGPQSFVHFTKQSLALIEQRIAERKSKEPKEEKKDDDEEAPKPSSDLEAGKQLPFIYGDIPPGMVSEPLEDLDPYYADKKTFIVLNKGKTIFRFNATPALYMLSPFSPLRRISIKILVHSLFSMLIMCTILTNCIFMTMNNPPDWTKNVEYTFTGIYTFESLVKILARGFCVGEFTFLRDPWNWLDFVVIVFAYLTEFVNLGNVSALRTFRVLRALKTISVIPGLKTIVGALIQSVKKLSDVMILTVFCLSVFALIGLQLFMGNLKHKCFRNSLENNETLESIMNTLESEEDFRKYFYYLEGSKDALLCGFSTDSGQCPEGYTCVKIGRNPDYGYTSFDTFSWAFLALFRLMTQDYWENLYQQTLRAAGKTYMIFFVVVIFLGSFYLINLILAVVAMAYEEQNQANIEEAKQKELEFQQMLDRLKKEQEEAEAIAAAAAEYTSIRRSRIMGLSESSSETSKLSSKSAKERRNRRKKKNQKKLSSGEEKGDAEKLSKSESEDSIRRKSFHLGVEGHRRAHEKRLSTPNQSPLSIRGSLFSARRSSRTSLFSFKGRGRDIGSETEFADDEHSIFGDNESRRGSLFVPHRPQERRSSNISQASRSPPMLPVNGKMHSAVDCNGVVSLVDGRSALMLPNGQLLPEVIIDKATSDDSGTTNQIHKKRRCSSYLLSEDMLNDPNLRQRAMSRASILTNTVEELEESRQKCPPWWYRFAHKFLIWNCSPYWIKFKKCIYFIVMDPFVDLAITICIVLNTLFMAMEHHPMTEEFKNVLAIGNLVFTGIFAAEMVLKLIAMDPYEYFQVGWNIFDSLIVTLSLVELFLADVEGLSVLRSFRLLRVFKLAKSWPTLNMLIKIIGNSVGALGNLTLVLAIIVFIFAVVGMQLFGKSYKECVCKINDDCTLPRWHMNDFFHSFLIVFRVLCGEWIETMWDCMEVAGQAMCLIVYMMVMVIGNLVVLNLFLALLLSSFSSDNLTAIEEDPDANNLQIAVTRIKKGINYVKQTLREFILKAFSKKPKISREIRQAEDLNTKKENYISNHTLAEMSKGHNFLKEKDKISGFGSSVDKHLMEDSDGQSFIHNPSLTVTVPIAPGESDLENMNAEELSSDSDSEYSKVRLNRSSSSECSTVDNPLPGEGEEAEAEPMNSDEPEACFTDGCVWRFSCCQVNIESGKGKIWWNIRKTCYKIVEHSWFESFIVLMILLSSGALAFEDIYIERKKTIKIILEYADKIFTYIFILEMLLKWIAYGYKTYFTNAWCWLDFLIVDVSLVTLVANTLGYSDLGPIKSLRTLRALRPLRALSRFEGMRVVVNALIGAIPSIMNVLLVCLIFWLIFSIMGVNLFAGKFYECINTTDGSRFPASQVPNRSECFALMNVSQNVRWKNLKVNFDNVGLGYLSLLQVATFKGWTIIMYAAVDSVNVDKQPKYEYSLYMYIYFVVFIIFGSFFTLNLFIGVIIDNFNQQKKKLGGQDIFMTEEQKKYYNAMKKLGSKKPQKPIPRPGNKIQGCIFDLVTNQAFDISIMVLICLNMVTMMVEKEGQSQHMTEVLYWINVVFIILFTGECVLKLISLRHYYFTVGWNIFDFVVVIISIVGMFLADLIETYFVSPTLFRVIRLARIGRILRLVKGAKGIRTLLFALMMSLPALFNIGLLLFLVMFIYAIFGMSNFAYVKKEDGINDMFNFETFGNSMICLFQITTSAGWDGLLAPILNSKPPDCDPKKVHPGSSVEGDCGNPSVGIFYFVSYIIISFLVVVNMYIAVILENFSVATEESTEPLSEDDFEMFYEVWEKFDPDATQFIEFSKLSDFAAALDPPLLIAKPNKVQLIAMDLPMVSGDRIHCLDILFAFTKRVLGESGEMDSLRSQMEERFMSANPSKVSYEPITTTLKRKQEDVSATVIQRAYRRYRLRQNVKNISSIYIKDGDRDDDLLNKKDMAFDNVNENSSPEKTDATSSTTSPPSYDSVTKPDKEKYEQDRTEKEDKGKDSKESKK
Experiment: Whole-cell patch-clamp electrophysiology (conventional or PatchXpress), HEK cells expressing hSCN9A, estimated IC-50
Format: cell-based
Conditions: estimated IC-50, HEK cells expressing hSCN9A; class symbols or bounds; read-out: SCN9A EIC-50
pIC50: −log10 of the molar value.
RECORDED_ENDPOINT: pIC50

Give hSCN9A (Homo sapiens, UniProt Q15858) pIC50 for `Cc1cc(Nc2ccc(S(=O)(=O)Nc3nccs3)c(F)c2)n(-c2c(Cl)cccc2Cl)n1`
> 5.70

Try this compound next: `O=S(=O)(Nc1nccs1)c1ccc(Nc2nc(-c3ccccc3)cs2)cc1`
5.00 to 5.70

Try this compound next: `CN(C)c1ccc(CNCc2csc(Nc3ccc(S(=O)(=O)Nc4nccs4)cc3)n2)cc1`
5.00 to 5.70

Try this compound next: `O=S(=O)(Nc1nccs1)c1ccc(Nc2ccn(Cc3ccc(Cl)cc3)n2)cc1OC(F)(F)F`
< 6.00

Try this compound next: `O=S(=O)(Nc1nccs1)c1ccc(Nc2nc(-c3ccc(C(F)(F)F)cc3)cs2)cc1`
> 5.70

Try this compound next: `N#Cc1cc(S(=O)(=O)Nc2ncns2)ccc1Nc1nnc(-c2ccccc2)c(O)n1`
< 6.00

Try this compound next: `Cn1nc(CC2CCCCC2)cc1Nc1ccc(S(=O)(=O)Nc2nccs2)c(F)c1`
> 5.70

Try this compound next: `O=S(=O)(Nc1nccs1)c1ccc(Nc2nccc(OCC(c3ccccc3)c3ccccc3)n2)cc1`
< 5.00
